Target: T1, PSMW39, human PSMA ECD (Lys44-Ala750), N-6xHis (human, UniProt Q04609 44-750)
T1 construct: Made in Expi-CHO cells; also called PSMW39.002; recombinant human ECD
T1 sequence (Q04609 other isoform, or with tags, fused parts or gaps): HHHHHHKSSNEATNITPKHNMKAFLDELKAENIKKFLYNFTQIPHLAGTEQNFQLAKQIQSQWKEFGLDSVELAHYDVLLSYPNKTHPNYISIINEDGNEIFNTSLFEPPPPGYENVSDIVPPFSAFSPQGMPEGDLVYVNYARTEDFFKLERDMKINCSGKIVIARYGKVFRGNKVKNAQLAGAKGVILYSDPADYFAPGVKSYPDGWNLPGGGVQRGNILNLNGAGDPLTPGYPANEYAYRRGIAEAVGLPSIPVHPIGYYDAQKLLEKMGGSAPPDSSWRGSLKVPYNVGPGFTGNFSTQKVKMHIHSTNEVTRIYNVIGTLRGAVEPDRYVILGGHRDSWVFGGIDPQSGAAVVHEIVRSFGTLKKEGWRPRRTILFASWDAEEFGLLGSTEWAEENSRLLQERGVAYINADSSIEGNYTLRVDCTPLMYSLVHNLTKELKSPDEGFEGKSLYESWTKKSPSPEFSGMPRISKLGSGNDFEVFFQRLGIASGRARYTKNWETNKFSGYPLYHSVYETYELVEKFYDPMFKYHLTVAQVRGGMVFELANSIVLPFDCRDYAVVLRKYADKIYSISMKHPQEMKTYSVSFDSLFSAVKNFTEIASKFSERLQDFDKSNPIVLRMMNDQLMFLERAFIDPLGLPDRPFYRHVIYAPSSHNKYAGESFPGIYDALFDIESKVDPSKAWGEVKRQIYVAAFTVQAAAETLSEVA
Assay: SPR (Biacore 8K), antibody captured on goat anti-Fc C1 chip, PSMA ECD as analyte, 1:1 Langmuir fit
reportedEndpoint: koff (s⁻¹)
Return type: number; implicit unit s⁻¹.

Sample answers from the record:
>>> val("PSMB1183 (antibody, human IgG1, lambda, V domains shown, huIgG1, lambda light chain) VH: QVQLQESGPGLVKSSETLSLTCTVSGGSISSYYWNWIRQPAGKGLEWIGRIYSSGNTDYNPSLKSRVTMSVDTSKNQFSLKLISVTAADTAVYYCARGRGANVGLFDYWGQGTLVTVSS VL: QSALTQPPSVSGAPGQRVTISCTGSNSNIGANYDVHWYQHLPGTAPKLLIYGNINRPLGVPDRFSGSRSGTSASLAITGLQAEDEADYYCQSYDFSLSGSVFGVGTKLTVLG")
0.000401
>>> val("PSMB1157 (antibody, human IgG1, lambda, V domains shown, huIgG1, lambda light chain) VH: EVQLVESGGGVVQPGRSLRLSCAASVRTFSGYGMHWVRQVPGKGLEWVAVISYDGSNRYYADSVKGRFTISRDNSKNTLYLQMNSLRTEDTAVYYCARDGNWGSLDLYFDLWGRGTLVTVSS VL: QSVLTQPPSVSGAPGQRVTISCTGSSSNIGADYDVHWYQQLPGTAPKLLIYVNNNRPSGVPDRFSGSRSGTSASLAITGLQADDEADYYCQSYDNTLSGVVFGGGTKLTVLG")
0.000274

What does the record list as koff for PSMB1088 (antibody, human IgG1, kappa, V domains shown, huIgG1, kappa light chain) VH: EVQLVESGGGVVQPGRSLRLSCAASGFTFSSYDMHWVRQAPGKGLEWVTVISFDGSNKYYVDSVKGRFTISRDNSKNTLYLQMNSLRAEDTAVYYCARTYYDILTGYSHYSYGMDVWGQGTTVTVSS VL: EIVMTQSPSSLSASVGDRVTITCRASQGISNYLAWYQQKPGKVPKLLIYATSTLQSGVPSRFSGSGSGTDFILTISSLQPEDVANYYCQKYNSAPFTFGPGTKVEIKR ?
2.85e-05

What does the record list as koff for PSMB1154 (antibody, human IgG1, lambda, V domains shown, huIgG1, lambda light chain) VH: EVQLVESGGGEVQPGRSLRLTCAVSGFTLSRYGMHWVRQAPGKGLEWAALISYDGSNRYYADSVKGRFTISRDNSKNTVFLQMNSLRAEDTAVYYCARERESSGWFEGYFDYWGQGTTVTVSS VL: QLVLTQPPSVSVAPGQTARITCGGNNIGSKSVHWYQQKPGQAPVLVVYDNSDRPSGIPERFSGSNSGNTATLTISRVEVGDEADYYCQVWDSSSDHVVFGGGTKLTVLG ?
0.00019

What does the record list as koff for PSMB1113 (antibody, human IgG1, kappa, V domains shown, huIgG1, kappa light chain) VH: EVQLVESGGGLVKPGGSLRLSCAASGFTLSIYSMNWVRQAPGKGLEWVSSISSSSSYIFYADSVKGRFTISRDNAKNSLFLQMNSLRAEDTAVYYCARSSYGADYWGQGTLVTVSS VL: EIVMTQSPSSLSASVGDRVTITCRASQDITNFLAWYQQKPGKVPKLLIYTASTLQSGVPSRFSGSGSGTDFTLTISSLQPEDVATYYCQKYNSAPLTFGGGTKLEIKR ?
6.65e-05

What does the record list as koff for PSMB1195 (antibody, human IgG1, kappa, V domains shown, huIgG1, kappa light chain) VH: EVQLVESGGGLVKPGGSLRLSCAASGFTFSSYSLNWVRQAPGKGLEWVSSISSSSSYISYADAVKGRFTISRDNAKNSLYLQMNSLRAEDTAVYYCARDRGFLEDYYYYYGMDVWGQGTTVTVSS VL: DIVMTQSPSSVSASVGDRVTITCRASQGISNWLAWYQQKPGKAPKLLIYVASSLQSGVPSRFSGSGSGTDFSLTISSLQPEDFATYYCQQAYSFPLTFGGGTKVEIKR ?
0.000101

The origin of these recorded values is patent US20230122503A1.
